target: LMM (V1346 through I1941 of D. melanogaster myosin heavy-chain) (Drosophila melanogaster, UniProt P05661); construct: encompassing V1346 through I1941 of D. melanogaster myosin heavy-chain; made in house; host or cells: E. coli BL-21(DE3) pLysS; test: Co-sedimentation assay of LMM titrated by WYR; format: binding; settings: Kd 95% CI, 95% confidence interval of Kd; co-sedimentation
Sequence (P05661 1-1936 isoform P05661-24): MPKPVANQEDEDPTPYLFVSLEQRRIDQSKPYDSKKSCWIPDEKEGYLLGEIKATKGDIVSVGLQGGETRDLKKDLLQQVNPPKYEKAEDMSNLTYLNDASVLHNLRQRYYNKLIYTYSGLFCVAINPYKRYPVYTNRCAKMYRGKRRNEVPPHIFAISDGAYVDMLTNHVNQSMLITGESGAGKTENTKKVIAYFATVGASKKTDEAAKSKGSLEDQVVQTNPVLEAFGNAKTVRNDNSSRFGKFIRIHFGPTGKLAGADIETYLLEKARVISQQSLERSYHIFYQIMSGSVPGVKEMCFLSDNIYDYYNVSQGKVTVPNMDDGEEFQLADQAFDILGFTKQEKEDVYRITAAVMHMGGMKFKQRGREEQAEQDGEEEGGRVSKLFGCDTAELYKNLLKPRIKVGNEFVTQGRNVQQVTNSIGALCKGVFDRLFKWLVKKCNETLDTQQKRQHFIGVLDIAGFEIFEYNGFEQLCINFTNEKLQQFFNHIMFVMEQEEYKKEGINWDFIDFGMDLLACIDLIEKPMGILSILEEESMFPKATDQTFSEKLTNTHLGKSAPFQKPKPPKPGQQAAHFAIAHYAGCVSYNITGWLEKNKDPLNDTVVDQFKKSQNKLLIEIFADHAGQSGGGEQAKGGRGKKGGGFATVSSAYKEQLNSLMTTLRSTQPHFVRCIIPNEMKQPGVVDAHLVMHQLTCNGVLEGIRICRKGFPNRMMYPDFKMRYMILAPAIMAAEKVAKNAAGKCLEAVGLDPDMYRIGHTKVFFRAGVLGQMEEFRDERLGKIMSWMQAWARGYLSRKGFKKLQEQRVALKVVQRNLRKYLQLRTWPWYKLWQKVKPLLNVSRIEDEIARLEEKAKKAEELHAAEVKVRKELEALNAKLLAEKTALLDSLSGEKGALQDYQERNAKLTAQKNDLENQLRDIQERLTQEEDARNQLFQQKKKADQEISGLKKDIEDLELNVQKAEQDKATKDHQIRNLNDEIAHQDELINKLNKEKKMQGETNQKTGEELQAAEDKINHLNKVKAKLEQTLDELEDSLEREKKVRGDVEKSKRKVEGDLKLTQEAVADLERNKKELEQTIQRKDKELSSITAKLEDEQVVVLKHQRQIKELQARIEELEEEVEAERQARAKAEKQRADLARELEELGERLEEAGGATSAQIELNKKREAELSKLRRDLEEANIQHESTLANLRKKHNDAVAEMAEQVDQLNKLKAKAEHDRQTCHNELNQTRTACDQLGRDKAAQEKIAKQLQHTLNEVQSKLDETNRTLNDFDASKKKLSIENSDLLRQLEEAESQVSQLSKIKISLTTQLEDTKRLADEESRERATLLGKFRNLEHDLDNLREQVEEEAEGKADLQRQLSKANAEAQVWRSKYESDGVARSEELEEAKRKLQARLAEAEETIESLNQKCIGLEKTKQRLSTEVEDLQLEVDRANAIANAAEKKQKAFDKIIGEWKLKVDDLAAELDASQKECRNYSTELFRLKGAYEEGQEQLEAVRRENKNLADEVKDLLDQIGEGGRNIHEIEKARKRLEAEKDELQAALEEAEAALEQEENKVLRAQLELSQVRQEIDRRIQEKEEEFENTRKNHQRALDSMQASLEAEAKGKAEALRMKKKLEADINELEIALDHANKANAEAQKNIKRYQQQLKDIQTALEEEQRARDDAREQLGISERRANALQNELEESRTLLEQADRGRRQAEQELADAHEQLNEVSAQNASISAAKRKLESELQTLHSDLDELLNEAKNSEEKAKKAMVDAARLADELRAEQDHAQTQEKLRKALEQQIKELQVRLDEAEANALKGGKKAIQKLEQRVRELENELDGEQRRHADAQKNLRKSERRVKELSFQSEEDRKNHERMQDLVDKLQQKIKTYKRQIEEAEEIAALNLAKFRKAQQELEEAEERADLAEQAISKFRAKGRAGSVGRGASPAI
Ends that are not written are not given here.
measuredEndpoint: Kd

- HWVRPKFLQYKYMYNYRTNYYDDVIDYIDKKQTGVAREIPRPQTWAERVLRT [WYR]: 1550 to 2760 nM
